- test_target: HLA-A*03:01
- method_description: IEDB peptide-MHC binding, purified MHC/competitive/radioactivity; filed as Kd, often an IC50 or EC50 that approximates it; bounds were set here for any values at or beyond the usual limits of such assays
- measurement_conditions: source organism: Dengue virus 4 Philippines/H241/1956
quantity_measured: Kd

INSERT INTO measurements (construct_sequence, measured_result) VALUES
  ('SLLGSALLK', '3.47 nM');

----------
- test_target: HLA-A*03:01
- method_description: IEDB peptide-MHC binding, purified MHC/competitive/radioactivity; filed as Kd, often an IC50 or EC50 that approximates it; bounds were set here for any values at or beyond the usual limits of such assays
- measurement_conditions: source organism: Vaccinia virus WR
Documented Kd across a set of sequences
quantity_measured: Kd (nM)

INSERT INTO assay_data (construct_sequence, test_target, unit_of_measure, sign_qualifier, measured_result) VALUES
  ('VFKDSFLRK', 'HLA-A*03:01', 'nM', '=', 322),
  ('GFEARIVDK', 'HLA-A*03:01', 'nM', '≥', 41000),
  ('ISSVLTILYY', 'HLA-A*03:01', 'nM', '=', 561),
  ('TMRIYCSLFK', 'HLA-A*03:01', 'nM', '=', 1.18),
  ('NLFSKNILKY', 'HLA-A*03:01', 'nM', '=', 656),
  ('EACYIYKSGK', 'HLA-A*03:01', 'nM', '=', 1080),
  ('IVTDLENRLK', 'HLA-A*03:01', 'nM', '=', 25.4),
  ('NITLKIIETY', 'HLA-A*03:01', 'nM', '≥', 70100),
  ('DLVKSSFVKK', 'HLA-A*03:01', 'nM', '=', 156),
  ('KLSSIKSKSR', 'HLA-A*03:01', 'nM', '=', 514),
  ('DIVNGKECCY', 'HLA-A*03:01', 'nM', '≥', 70100);

----------
- test_target: HLA-A*02:16
- method_description: IEDB peptide-MHC binding, purified MHC/competitive/fluorescence; filed as Kd, often an IC50 or EC50 that approximates it; bounds were set here for any values at or beyond the usual limits of such assays
- measurement_conditions: source organism: Brucella suis ATCC 23445
quantity_measured: Kd

INSERT INTO measurements (construct_sequence, measured_result) VALUES
  ('ITAVNRYFK', '≥ 20 µM');

----------
- test_target: HLA-B*51:01
- method_description: IEDB peptide-MHC binding, purified MHC/competitive/radioactivity; filed as Kd, often an IC50 or EC50 that approximates it; bounds were set here for any values at or beyond the usual limits of such assays
- measurement_conditions: source organism: Dengue virus 1 Singapore/S275/1990
quantity_measured: Kd (nM)

INSERT INTO measurements (construct_sequence, test_target, unit_of_measure, measured_result) VALUES
  ('IPKIYGGPI', 'HLA-B*51:01', 'nM', 630);

----------
- test_target: HLA-B*15:01
- method_description: IEDB peptide-MHC binding, purified MHC/competitive/fluorescence; bounds were set here for any values at or beyond the usual limits of such assays
- measurement_conditions: source organism: Sudan ebolavirus
pIC50: −log10 of the molar value.
quantity_measured: pIC50

INSERT INTO measurements (construct_sequence, sign_qualifier, measured_result) VALUES
  ('LQLFLRATT', '≤', 4.04),
  ('HMQISTIGI', '=', 5.02);
